Target: CYP2J2 (Homo sapiens, UniProt P51589)
Sequence (P51589 1-502): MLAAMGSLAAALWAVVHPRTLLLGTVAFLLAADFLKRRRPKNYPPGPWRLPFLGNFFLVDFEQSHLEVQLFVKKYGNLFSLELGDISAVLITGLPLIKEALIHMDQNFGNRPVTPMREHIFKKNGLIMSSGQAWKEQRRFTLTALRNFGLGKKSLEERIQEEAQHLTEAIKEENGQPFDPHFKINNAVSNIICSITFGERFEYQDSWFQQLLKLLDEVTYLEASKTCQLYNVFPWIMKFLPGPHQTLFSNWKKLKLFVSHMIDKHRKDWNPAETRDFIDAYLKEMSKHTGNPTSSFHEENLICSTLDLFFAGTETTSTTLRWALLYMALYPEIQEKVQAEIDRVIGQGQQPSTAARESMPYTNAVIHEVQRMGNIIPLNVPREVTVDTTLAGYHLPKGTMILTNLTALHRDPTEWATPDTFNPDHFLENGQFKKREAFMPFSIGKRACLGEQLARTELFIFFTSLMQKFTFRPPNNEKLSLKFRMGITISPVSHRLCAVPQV
Details: formation of mono-oxygenated product, 5–60 µM pCB, 30 min, 37°C
Endpoint: Vmax

| Molecule | Endpoint | Value |
| --- | --- | --- |
| CCCCCc1cc(O)c2c(c1)OC(C)(C)[C@@H]1CCC(C)=C[C@@H]21 [Δ9-THC, Δ9-tetrahydrocannabinol, reference compound] | Vmax | 211 ± 28 pmol · min^−1 · nmolCYP2J2^−1 |
| CCCCCc1cc(O)c(C/C=C(\C)CCC=C(C)C)c(O)c1 | Vmax | 123 ± 14 pmol · min^−1 · nmolCYP2J2^−1 |
| CCCCCc1cc(O)c2c(c1)OC(C)(CCC=C(C)C)C=C2 (centres unmarked) | Vmax | 371 ± 134 pmol · min^−1 · nmolCYP2J2^−1 |
| C=C(C)[C@@H]1CCC(C)=C[C@H]1c1c(O)cc(CCCCC)cc1O [CBD, cannabidiol, reference compound] | Vmax | 372 ± 100 pmol · min^−1 · nmolCYP2J2^−1 |

* * *

Biological target: CYP2J2 (Homo sapiens)
Sequence (P51589 1-502): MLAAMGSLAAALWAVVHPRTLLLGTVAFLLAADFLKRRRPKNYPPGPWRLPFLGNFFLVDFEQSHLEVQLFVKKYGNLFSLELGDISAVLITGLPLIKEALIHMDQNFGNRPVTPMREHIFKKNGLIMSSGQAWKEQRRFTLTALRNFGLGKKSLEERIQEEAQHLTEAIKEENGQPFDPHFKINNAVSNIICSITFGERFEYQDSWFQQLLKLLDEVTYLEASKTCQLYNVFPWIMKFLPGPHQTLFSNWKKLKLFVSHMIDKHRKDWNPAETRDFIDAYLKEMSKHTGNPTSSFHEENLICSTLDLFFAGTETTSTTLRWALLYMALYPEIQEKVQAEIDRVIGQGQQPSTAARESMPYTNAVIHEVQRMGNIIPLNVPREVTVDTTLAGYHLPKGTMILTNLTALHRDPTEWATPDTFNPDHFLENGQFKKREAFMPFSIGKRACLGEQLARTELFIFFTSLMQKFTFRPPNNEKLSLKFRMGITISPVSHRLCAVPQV
Test: Inhibition of CYP2J2-mediated AEA metabolism by pCBs
Format: biochemical
Conditions: read-out: Ki, AEA Metabolism Inhibition; 30 µM pCB, CYP2J2-ND/CPR

| Molecule | Ki |
| --- | --- |
| CCCCCc1cc(O)c2c(c1)OC(C)(C)[C@@H]1CCC(C)=C[C@@H]21 [Δ9-THC, Δ9-tetrahydrocannabinol, reference compound] | 9.86 µM |
| CCCCCc1cc(O)c2c(c1)OC(C)(C)[C@@H]1CC=C(C)C[C@@H]21 [Δ8-THC, Δ8-tetrahydrocannabinol] | 20.2 µM |

Provenance of the data: paper PMC5964033
